Tested on: OVCAR-5
EXPERIMENT: NCI tumour cell line growth inhibition, 48 h
The source made the active and inactive calls. No stated cut-off is given here; in the data, active = GI50 up to about 1.1 µM and inactive = higher.
MEASUREMENT TYPE: GI50

{"MOLECULE": "CN(C)c1ccc(/C=C(\\NC(=O)c2ccccc2)C(=O)NC(Cc2c[nH]c3ccccc23)C(=O)O)cc1 (stereo not drawn)", "TARGET OF ASSAY": "OVCAR-5", "GI50": "> 100 µM (inactive)"}
{"MOLECULE": "O=C1Sc2cc3ccccc3cc2C(=O)Sc2cc3ccccc3cc21", "TARGET OF ASSAY": "OVCAR-5", "GI50": "36.1 µM (inactive)"}
{"MOLECULE": "CCn1c(=O)ccc2ccc(N(CCO)CCO)nc21", "TARGET OF ASSAY": "OVCAR-5", "GI50": "> 100 µM (inactive)"}
{"MOLECULE": "COc1ccc(OC)c2c3c([nH]c12)C(=O)Nc1nc(N)nc(N)c1C3", "TARGET OF ASSAY": "OVCAR-5", "GI50": "> 100 µM (inactive)"}
{"MOLECULE": "C=C1C(C2(C)C(OC(C)=O)CC(=O)OC(C)(COC(C)=O)C2CC(=O)OC)C(OC=O)C(OC(=O)C(O)C(C)CC)C2(C)C(c3ccoc3)CC(=O)C12O (stereo not drawn)", "TARGET OF ASSAY": "OVCAR-5", "GI50": "> 100 µM (inactive)"}

Enquiry: What GI50 appears in the records for this molecule with OVCAR-5? CN(C)CCNC1=CC(=O)c2nc3ccccc3c3ccnc1c23
Return: 5.74 µM (inactive)

Enquiry: Form field - read-out: GI50; system: OVCAR-5; submitted item: COc1ccc(NC(=O)CC/C(CC(=O)C(C)(C)C)=N\NC(=O)C(=O)NN)cc1
Return: > 100 µM (inactive)

Enquiry: Provide value of GI50 for this record tested with OVCAR-5: CCOC(=O)C(=[N+]=[N-])C(=O)C1(C(=O)OCC)CCN(C(=O)c2ccccc2)C1=O (stereo not drawn)
Return: > 100 µM (inactive)

Enquiry: Notebook entry, OVCAR-5 assay: GI50 of COc1cc(/C=C/C(=N\NS(=O)(=O)c2ccc(C)cc2)c2sc(NNC(C)=O)nc2C)ccc1O = ?
Return: > 100 µM (inactive)

Enquiry: Please provide the recorded GI50 for CC(=O)OC(CC1(C)C(C)CCC23COC(=O)C2=CCCC31)c1ccoc1 (stereo not drawn) , tested on OVCAR-5.
Return: 28.2 µM (inactive)

Enquiry: API: value(readout=GI50, system=OVCAR-5) for record CCN(CC)CC1CCCCN1CC(=O)N1CC(C)C(=O)Nc2ccccc21 (stereo not drawn)
Return: > 100 µM (inactive)

Enquiry: Entry O/N=C1/CCCC/C1=C/C=C/c1ccccc1 , system OVCAR-5: what GI50 was measured?
Return: 26.7 µM (inactive)

Enquiry: Please provide the recorded GI50 for CC1=CC(=O)/C(=C/N2C(=O)CNC2=S)C(=O)O1 , tested on OVCAR-5.
Return: > 100 µM (inactive)

----------
System: LOX IMVI
EXPERIMENT: NCI tumour cell line growth inhibition, 48 h
Active and inactive are the calls of the source. Rule as the data show it: active = GI50 up to about 1.1 µM and inactive = higher.
MEASUREMENT TYPE: GI50

{"COMPOUND": "Cc1ccc(C2=NN=C3C(c4ccccc4)=Nc4ccccc4N3C2)cc1", "ENDPOINT VALUE": "5.65 µM (inactive)"}

Enquiry: For the compound shown here, Nc1ccc2ncc(NCc3ccc(F)cc3)nc2c1 , give the reported GI50.
Return: 75 µM (inactive)

Enquiry: Give the measured GI50 of CCS(=O)(=O)c1c2cc(OC)ccc2nc2ccc(OC)cc12 .
Return: > 100 µM (inactive)

Enquiry: Could you tell me which GI50 is on file for O=CC1C(=O)Nc2nc3ccccc3n2C1c1ccccc1 (stereo unspecified) ?
Return: 11.1 µM (inactive)
